test: wn = mass fraction of the nth substance listed; conditions: 333.15 K, Pendant drop shape, w1 = 0.18
± gives the expanded uncertainty stated by the source.
This section presents molecules with their documented surface tension liquid-gas values.
Number first, unit second.

Worked examples, 2 molecules total:
Consider [Cl-].[Na+] [sodium chloride] + O . Its measured surface tension liquid-gas is 71.44 ± 1.2 mN/m

Form: molecule = [Ca+2].[Cl-].[Cl-] [calcium chloride] + O ; surface tension liquid-gas = 71.87 ± 0.9 mN/m

New cases:
Lookup result for O=S(=O)([O-])[O-].[Na+].[Na+] [sodium sulfate] + O ; measured surface tension liquid-gas: 71.4 ± 0.81 mN/m

// sample [Cl-].[K+] [potassium chloride] + O , its surface tension liquid-gas was 71.44 ± 1 mN/m

###

experiment: wn = mass fraction of the nth substance listed; conditions: 313.15 K, Pendant drop shape, w1 = 0.1
± gives the expanded uncertainty stated by the source.
property_label: surface tension liquid-gas
Dear colleague, please send the value followed by its unit.

Check out these entries, answers already filled in.
# surface tension liquid-gas (molecule: [Ca+2].[Cl-].[Cl-] [calcium chloride] + O ) is 72.56 ± 0.9 mN/m

Record [Cl-].[Na+] [sodium chloride] + O , field surface tension liquid-gas: 71.81 ± 1.2 mN/m

Lab note: measured surface tension liquid-gas of [Cl-].[K+] [potassium chloride] + O was 69.86 ± 1 mN/m

Okay, now this molecule:
// surface tension liquid-gas lookup, molecule = O=S(=O)([O-])[O-].[Na+].[Na+] [sodium sulfate] + O , result: 71.88 ± 0.81 mN/m

###

assay: wn = mass fraction of the nth substance listed; details: 323.15 K, Pendant drop shape, w1 = 0.18
property_label: surface tension liquid-gas (mN/m)
Numeric only. Scale: mN/m

Record summary for [Cl-].[K+] [potassium chloride] + O : reported surface tension liquid-gas = 74.65

surface tension liquid-gas reported for this compound O=S(=O)([O-])[O-].[Na+].[Na+] [sodium sulfate] + O : 73.22

Form: compound = [Ca+2].[Cl-].[Cl-] [calcium chloride] + O ; surface tension liquid-gas = 73.25

Query compound follows.
So, [Cl-].[Na+] [sodium chloride] + O ? Its surface tension liquid-gas was 73.38

###

Recorded surface tension liquid-gas by entry
test: wn = mass fraction of the nth substance listed; settings: 333.15 K, Pendant drop shape, w1 = 0.14
± gives the expanded uncertainty stated by the source.

Consider the reported surface tension liquid-gas for these compounds:
Item: [Cl-].[K+] [potassium chloride] + O | surface tension liquid-gas: 66.16 ± 0.96 mN/m

The compound identified as [Cl-].[Na+] [sodium chloride] + O registered its surface tension liquid-gas at 71.83 ± 1.2 mN/m

The measured surface tension liquid-gas associated with [Ca+2].[Cl-].[Cl-] [calcium chloride] + O reads 70.63 ± 0.88 mN/m

Attention now shifts to the item below.
Record O=S(=O)([O-])[O-].[Na+].[Na+] [sodium sulfate] + O , field surface tension liquid-gas: 69.93 ± 0.79 mN/m

###

The following molecules are listed with their measured surface tension liquid-gas values.
experiment: wn = mass fraction of the nth substance listed; details: 313.15 K, Pendant drop shape, w1 = 0.14
Numbers after ± are expanded uncertainties.

For record [Ca+2].[Cl-].[Cl-] [calcium chloride] + O the listed surface tension liquid-gas is 73.65 ± 0.92 mN/m

Briefly, surface tension liquid-gas measured for [Cl-].[K+] [potassium chloride] + O : 70.64 ± 1 mN/m

Short answer for [Cl-].[Na+] [sodium chloride] + O : surface tension liquid-gas was 74.6 ± 1.3 mN/m

Switching to the query record.
Query O=S(=O)([O-])[O-].[Na+].[Na+] [sodium sulfate] + O yields surface tension liquid-gas of 72.82 ± 0.82 mN/m
